Target: human FSH receptor (Homo sapiens, UniProt P23945)
Sequence (P23945 18-695): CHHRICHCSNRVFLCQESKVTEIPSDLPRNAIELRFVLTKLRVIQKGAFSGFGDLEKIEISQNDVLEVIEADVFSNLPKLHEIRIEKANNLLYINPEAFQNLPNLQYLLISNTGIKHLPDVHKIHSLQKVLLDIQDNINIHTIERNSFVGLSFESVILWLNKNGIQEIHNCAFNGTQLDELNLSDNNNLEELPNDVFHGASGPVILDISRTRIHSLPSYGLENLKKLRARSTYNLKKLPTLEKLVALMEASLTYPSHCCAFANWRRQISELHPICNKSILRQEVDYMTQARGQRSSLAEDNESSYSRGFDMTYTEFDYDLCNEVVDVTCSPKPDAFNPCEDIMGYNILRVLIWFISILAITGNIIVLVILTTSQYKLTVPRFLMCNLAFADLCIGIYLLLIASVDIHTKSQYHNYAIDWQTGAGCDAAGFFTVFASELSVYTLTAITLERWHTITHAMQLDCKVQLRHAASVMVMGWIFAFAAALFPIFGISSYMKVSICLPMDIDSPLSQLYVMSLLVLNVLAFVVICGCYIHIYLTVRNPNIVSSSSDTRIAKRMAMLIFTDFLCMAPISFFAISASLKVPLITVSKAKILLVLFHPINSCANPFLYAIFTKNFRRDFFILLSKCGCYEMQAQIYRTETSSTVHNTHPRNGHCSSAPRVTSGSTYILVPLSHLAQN
Test: hFSHRago (CHO luc): agonistic activity at the human FSH receptor expressed in CHO cells, CRE-luciferase reporter
Settings: CHO cells stably transfected with human FSH receptor and CRE/luciferase reporter; 4 hours of incubation
pEC50: −log10 of the molar value.
Measured pEC50 accompanies every entry in the list below.
EXPERIMENTAL ENDPOINT: pEC50

INSERT INTO assay_data (molecule, observed) VALUES
  ('COc1cc2c(cc1OC(C)C)-c1c(-c3cccs3)cc(C(=O)N3CCCN(C(=O)CCN)CC3)n1CC2 [Example 5]', 5.85),
  ('COc1cc2c(cc1OC(C)C)-c1c(-c3cccs3)cc(C(=O)N3CC=CC3)n1CC2 [Example 15]', 6.60),
  ('COc1cc2c(cc1OC(C)C)-c1c(-c3cccs3)cc(C(=O)N3CC4CC(C3)c3cccc(=O)n3C4)n1CC2 (centres unmarked) [Example 18]', 7.43),
  ('COc1cc2c(cc1OC)-c1c(-c3ccc(F)cc3F)cc(C(=O)N(C)C(C)(C)C)n1CC2 [Example 118]', 7.32),
  ('COc1cc2c(cc1N1CCOCC1)-c1c(-c3cccnc3)cc(C(=O)N(C)C(C)(C)C)n1CC2 [Example 57]', 6.56),
  ('COc1cc2c(cc1C=O)-c1c(-c3cccs3)cc(C(=O)N(C)C(C)(C)C)n1CC2 [Example 91a]', 8.22),
  ('COc1cc2c(cc1C=C(C)C)-c1c(-c3nccs3)cc(C(=O)N(C)C(C)(C)C)n1CC2 [Example 59]', 8.59),
  ('COc1cc2c(cc1NC(=O)CN1CCC1)-c1c(-c3cccs3)cc(C(=O)N(C)C(C)(C)C)n1CC2 [Example 97]', 8.40);

---

Molecular target: human FSH receptor (Homo sapiens)
Test: hFSHRago (CHO luc): agonistic activity at the human FSH receptor expressed in CHO cells, CRE-luciferase reporter
Settings: CHO cells stably transfected with human FSH receptor and CRE/luciferase reporter; 4 hours of incubation
pEC50: −log10 of the molar value.
Measured pEC50 accompanies every entry in the list below.
EXPERIMENTAL ENDPOINT: pEC50

INSERT INTO assay_data (compound, observed) VALUES
  ('CNC(=O)COc1cc2c(cc1OC)CCn1c(C(=O)N(C)C(C)(C)C)cc(-c3cccs3)c1-2', 8.51),
  ('COc1cc2c(cc1N1CCN(C)CC1)-c1c(-c3cccs3)cc(C(=O)N(C)C(C)(C)C)n1CC2', 6.34),
  ('COc1cc2c(cc1OC(C)C)-c1c(-c3nnn[nH]3)cc(C(=O)N(C)C(C)(C)C)n1CC2', 5.79),
  ('COc1cc2c(cc1CO)-c1c(-c3cccs3)cc(C(=O)N(C)C(C)(C)C)n1CC2 [Example 121a]', 8.00);

---

EXPERIMENTAL ENDPOINT: melting point

INSERT INTO measurements (molecule, experimental_endpoint, observed) VALUES
  ('COc1cc2c(cc1Oc1cccc(F)c1)-c1c(-c3cccs3)cc(C(=O)N(C)C(C)(C)C)n1CC2', 'melting point', '158 to 159 °C'),
  ('COc1cc2c(cc1OC(C)C)-c1c(-c3cccs3)cc(C(=O)N3CC4CC(C3)c3cccc(=O)n3C4)n1CC2 (stereo not shown)', 'melting point', '260 °C'),
  ('COc1cc2c(cc1OC(C)C)-c1c(-c3cccs3)cc(C(=O)N3CC4CC(C3)C3CCCC(=O)N3C4)n1CC2 (stereo not shown)', 'melting point', '207 to 208 °C'),
  ('COc1cc2c(cc1C(=O)Nc1nncs1)-c1c(-c3cccs3)cc(C(=O)N(C)C(C)(C)C)n1CC2', 'melting point', '149 to 152 °C'),
  ('COc1cc2c(cc1OC(C)C)-c1c(-c3cccs3)cc(C(=O)N3C[C@H]4C[C@@H](NC(C)=O)C[C@H]4C3)n1CC2', 'melting point', '106 to 112 °C'),
  ('COc1cc2c(cc1NC(=O)c1cccnc1)-c1c(-c3cccs3)cc(C(=O)N(C)C(C)(C)C)n1CC2', 'melting point', '223 to 224 °C'),
  ('COc1cc2c(cc1CCC(C)(C)O)-c1c(-c3cccs3)cc(C(=O)N(C)C(C)(C)C)n1CC2', 'melting point', '153 to 154 °C');

Where these numbers come from: patent US8394789B2
